Listed binders paired with reported glycan array binding signal (z-score)
target: Gal(b1-4)GlcNAc(b1-3)Gal(b1-4)GlcNAc(b1-3)Gal(b1-4)GlcNAc(b1-2)Man(a1-3)[Gal(b1-4)GlcNAc(b1-3)Gal(b1-4)GlcNAc(b1-3)Gal(b1-4)GlcNAc(b1-2)Man(a1-6)]Man(b1-4)GlcNAc(b1-4)GlcNAc; experiment: glycan array binding signal (z-score within array); higher = stronger binding; conditions: glycan notation: IUPAC condensed, linker removed
The sample as a whole holds a higher share of the strongest signals than the screen did.

| binder | glycan array binding signal (z-score) |
| --- | --- |
| AFL6 (Aspergillus fumigatus), Q4WKJ1 (protein) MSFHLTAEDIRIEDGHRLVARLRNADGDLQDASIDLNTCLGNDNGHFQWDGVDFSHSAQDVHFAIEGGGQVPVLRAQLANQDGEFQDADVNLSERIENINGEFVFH | 2.41 |
| Pbx1CASH domain (Cryptococcus neoformans) (protein) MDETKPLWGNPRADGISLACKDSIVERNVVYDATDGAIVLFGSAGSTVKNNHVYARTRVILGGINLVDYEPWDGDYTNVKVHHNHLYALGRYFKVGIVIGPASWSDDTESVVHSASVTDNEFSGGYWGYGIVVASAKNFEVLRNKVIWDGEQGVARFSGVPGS | 3.17 |
